- ASSAYED_SYSTEM: recombinant human PDGF-BB (human, UniProt P01127 82-190)
- Sequence (P01127 82-190 limits assumed): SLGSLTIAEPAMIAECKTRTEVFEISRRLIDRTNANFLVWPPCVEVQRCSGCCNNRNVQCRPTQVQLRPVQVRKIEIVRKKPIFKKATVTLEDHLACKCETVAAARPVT
- EXPERIMENT_SUMMARY: cell-based or functional assay
EXPERIMENTAL_ENDPOINT: hPDGF-BB IC50 (nM), hPDGF-BB-induced NIH-3T3 cell proliferation

Record excerpt, results attached:
hBFU-3E2.4 (antibody, V domains shown) VH: EVQLVQSGAEVKKPGSSVKVSCKASGYTFTESYMYWVRQAPGQGLELIGRIDPEDGSTDYVEKFKNRVTLTADKSTSTAYMELSSLRSEDTAVYYCARFGARSYFYPMDAWGQGTTVTVSS VL: ATQLTQSPSSLSASVGDRVTISCRASESVSTLMHWYQQKPGKQPRLLIYGASNLESGVPSRFSGSGSGTDFTLTISSLQPEDFATYFCQQSWNDPWTFGGGTKVEIK = 0.571 nM
hBDI-5H1.3 (antibody, V domains shown) VH: EVTLRESGPALVKPTQTLTLTCTFSGFSLSTFGMGVGWIRQPPGKALEWLANIWWDDDKYYNPSLKNRLTISKDTSKNQVVLTMTNMDPVDTATYYCARISTGISSYYVMDAWGQGTTVTVSS VL: EIVLTQSPGTLSLSPGERATLSCERSSGDIGDTYVSWYQQKPGQAPRLLIYGNDQRPSGIPDRFSGSGSGTDFTLTISRLEPEDFAVYYCQSYDSDIDIVFGGGTKVEIK = < 10 nM

Exercise: Consider the binder shown here: hBDI-9E8.2 (antibody, V domains shown) VH: EVTLRESGPALVKPTQTLTLTCTFSGFSLSTYGMGVGWIRQPPGKALEWLANIWWDDDKYYNPSLKNRLTISKDTSKNQVVLTMTNMDPVDTATYYCARIESIGTTYSFDYWGQGTMVTVSS VL: NFMLTQPHSVSESPGKTVTISCERSSGDIGDSYVSWYQQRPGSPPTNVIYADDQRPSGVPDRFSGSIDSSSNSASLTISGLKTEDEADYFCQSYDINIDIVFGGGTKLTVL What is its recorded hPDGF-BB IC50 (nM), hPDGF-BB-induced NIH-3T3 cell proliferation?
Solution: > 5 nM
